system: KAI3 (IL-2 2.5 ng/mL); assay: percent inhibition of viability; higher = more inhibition; conditions: 72 h; 100 nM
# percent inhibition of viability listing for each entry below
Just the number in %, nothing appended.

Below are worked cases with known answers.
* O=C(c1ccc(F)c(F)c1Nc1ccc(I)cc1F)N1CC(O)([C@@H]2CCCCN2)C1 [Cobimetinib] (max concentration tested 1000 nM) | 11.7
* CC1(C)CCC(CN2CCN(c3ccc(C(=O)NS(=O)(=O)c4ccc(NCC5CCOCC5)c([N+](=O)[O-])c4)c(Oc4cnc5[nH]ccc5c4)c3)CC2)=C(c2ccc(Cl)cc2)C1 [Venetoclax] (max concentration tested 10000 nM) | 71
* O=C(O)CC1CC(c2ccccc2)=NO1 (centres undefined) [VGX-1027] (max concentration tested 10000 nM) | 1.3

We next turn to a different molecule, shown below.
Prompt line: Need percent inhibition of viability of COCC1(CO)C(=O)C2CCN1CC2 (centres undefined) [APR-246] (max concentration tested 10000 nM) , thanks.
Response line: -2.31

* * *

test system: normal primary NK cells, pool 1 (3 donors) (IL-2 2.5 ng/mL); assay: percent inhibition of viability; higher = more inhibition; conditions: 72 h; 100 nM
Entries and their measured percent inhibition of viability follow.
Could you write the number and then its unit?

These solved cases illustrate the format of a correct answer.
- COc1cc(Nc2ncc3c(n2)-c2ccc(Cl)cc2C(c2c(F)cccc2OC)=NC3)ccc1C(=O)O [Alisertib] (max concentration tested 10000 nM): 6.91%
- CCOc1cc2ncc(C#N)c(Nc3ccc(OCc4ccccn4)c(Cl)c3)c2cc1NC(=O)/C=C/CN(C)C [Neratinib] (max concentration tested 1000 nM): -9.14%

Prompt line: Request body: readout percent inhibition of viability, system normal primary NK cells, pool 1 (3 donors) (IL-2 2.5 ng/mL), query COc1cc(O)c2c(c1)/C=C/C[C@H](O)[C@H](O)C(=O)/C=C\C[C@H](C)OC2=O [(5Z)-7-Oxozeaenol] (max concentration tested 10000 nM) . Return the value.
Response line: 22.8%

Prompt line: Likewise for COc1cccc2c1c(O)c(C(=O)N(C)c1ccc(C(F)(F)F)cc1)c(=O)n2C [Tasquinimod] (max concentration tested 10000 nM) ?
Response line: 6.5%

Prompt line: Consider next the molecule C=CC[C@@H]1/C=C(\C)C[C@H](C)C[C@H](OC)[C@H]2O[C@@](O)(C(=O)C(=O)N3CCCC[C@H]3C(=O)O[C@H](/C(C)=C/[C@@H]3CC[C@@H](O)[C@H](OC)C3)[C@H](C)[C@@H](O)CC1=O)[C@H](C)C[C@@H]2OC [Tacrolimus] (max concentration tested 10000 nM) in the same way.
Response line: 4.89%

* * *

test system: KHYG-1 (IL-2 2.5 ng/mL); test: drug sensitivity score (DSS) (DSS units); higher = more sensitive; extreme values may be limits of the assay; settings: 72 h
measured property: drug sensitivity score
Give your answer as a number; write no unit.

Below are worked cases with known answers.
- CCn1c(-c2nonc2N)nc2c(C#CC(C)(C)O)ncc(OC[C@H]3CCCNC3)c21 (max concentration tested 10000 nM): 0
- Cc1[nH]c2ccccc2c1CCNCc1ccc(/C=C/C(=O)NO)cc1 [Panobinostat] (max concentration tested 1000 nM): 21.6

# ---- query molecule ----
Prompt line: Request - read-out drug sensitivity score | tested on KHYG-1 (IL-2 2.5 ng/mL) | molecule COc1cc([C@@H]2c3cc4c(cc3[C@@H](O[C@@H]3O[C@@H]5CO[C@@H](c6cccs6)O[C@H]5[C@H](O)[C@H]3O)[C@H]3COC(=O)[C@H]23)OCO4)cc(OC)c1O [Teniposide] (max concentration tested 10000 nM)
Response line: 30.9

Sourced from the supplement of paper PMC5908809
